- measured-on: Integrin alpha-4/beta-1 (Homo sapiens, UniProt P05556+P13612)
- Sequence (P05556 whole entry): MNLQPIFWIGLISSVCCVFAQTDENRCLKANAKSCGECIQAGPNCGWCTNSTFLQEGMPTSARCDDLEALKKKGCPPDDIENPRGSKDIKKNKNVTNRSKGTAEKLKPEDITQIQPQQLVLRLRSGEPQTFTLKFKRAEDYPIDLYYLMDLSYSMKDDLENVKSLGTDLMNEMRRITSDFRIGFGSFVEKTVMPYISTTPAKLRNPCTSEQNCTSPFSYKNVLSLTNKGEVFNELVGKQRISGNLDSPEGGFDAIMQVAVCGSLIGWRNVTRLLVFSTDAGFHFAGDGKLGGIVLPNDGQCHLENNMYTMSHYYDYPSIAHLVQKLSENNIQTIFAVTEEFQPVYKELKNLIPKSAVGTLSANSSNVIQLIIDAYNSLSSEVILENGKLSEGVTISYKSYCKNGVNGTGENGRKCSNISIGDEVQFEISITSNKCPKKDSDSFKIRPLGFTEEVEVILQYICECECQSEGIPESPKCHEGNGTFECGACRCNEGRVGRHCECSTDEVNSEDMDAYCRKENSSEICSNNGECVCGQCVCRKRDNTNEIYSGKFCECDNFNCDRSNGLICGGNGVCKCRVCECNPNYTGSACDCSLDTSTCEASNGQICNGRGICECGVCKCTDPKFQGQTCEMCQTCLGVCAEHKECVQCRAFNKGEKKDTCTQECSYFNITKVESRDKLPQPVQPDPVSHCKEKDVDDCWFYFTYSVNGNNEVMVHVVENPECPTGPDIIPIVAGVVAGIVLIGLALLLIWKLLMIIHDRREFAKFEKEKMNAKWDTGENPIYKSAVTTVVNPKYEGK
- Sequence (P13612 whole entry): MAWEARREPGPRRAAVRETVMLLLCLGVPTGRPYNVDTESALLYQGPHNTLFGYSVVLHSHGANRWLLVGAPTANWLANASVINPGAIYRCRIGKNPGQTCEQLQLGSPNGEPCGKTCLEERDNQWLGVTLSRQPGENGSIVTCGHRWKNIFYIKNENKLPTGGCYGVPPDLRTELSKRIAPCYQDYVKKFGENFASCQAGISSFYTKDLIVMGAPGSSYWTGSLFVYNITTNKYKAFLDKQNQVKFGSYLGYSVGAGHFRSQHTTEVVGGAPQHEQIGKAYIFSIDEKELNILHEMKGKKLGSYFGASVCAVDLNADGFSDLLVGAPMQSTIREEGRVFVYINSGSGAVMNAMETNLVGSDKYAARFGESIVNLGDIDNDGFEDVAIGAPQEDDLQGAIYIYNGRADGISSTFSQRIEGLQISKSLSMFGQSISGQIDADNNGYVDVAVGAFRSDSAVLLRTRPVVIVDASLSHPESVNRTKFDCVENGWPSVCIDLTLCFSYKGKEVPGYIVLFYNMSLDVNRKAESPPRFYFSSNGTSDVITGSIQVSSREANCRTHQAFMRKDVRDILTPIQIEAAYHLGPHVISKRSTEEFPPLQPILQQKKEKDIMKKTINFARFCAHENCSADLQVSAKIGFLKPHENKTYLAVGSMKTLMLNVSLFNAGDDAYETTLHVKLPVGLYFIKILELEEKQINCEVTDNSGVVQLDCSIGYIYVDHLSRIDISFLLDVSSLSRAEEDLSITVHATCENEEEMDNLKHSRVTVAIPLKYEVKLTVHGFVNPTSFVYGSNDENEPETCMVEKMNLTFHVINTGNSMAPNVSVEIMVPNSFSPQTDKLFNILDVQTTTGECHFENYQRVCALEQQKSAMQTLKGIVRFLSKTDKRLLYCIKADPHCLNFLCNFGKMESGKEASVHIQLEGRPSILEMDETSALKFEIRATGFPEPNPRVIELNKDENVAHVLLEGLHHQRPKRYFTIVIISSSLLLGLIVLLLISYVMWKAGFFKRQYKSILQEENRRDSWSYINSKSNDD
- assay-protocol: Alpha4-beta1 integrin binding affinity was assessed by measuring the reduction in binding of [125I]VCAM-Ig to a suspension of Jurkat cells (a human T cell line alpha-4-beta-1-beta-7)
Starred links: 1 amine or outer side, 2 acyl side, 3 side chain; linkers in the order of their positions; H or OH if unused. Residues, ends and D or L forms follow the SMILES beside them. Groups on a side chain read outwards from the residue. *: point of attachment. Pyrrolidide = C1CCN(*)C1; CO = O=C([*:1])[*:2]; Ms = CS(=O)(=O)*
So basically, the class depends on measured IC50, and the ranges are group 1: < 0.2 nM; group 2: ≥ 0.2 nM and < 0.3 nM; group 3: ≥ 0.3 nM

Query block: For the record `N#CCOc1ccc(C[C@H](NC(=O)[C@@H]2CCCN2S(=O)(=O)c2cc(Cl)cc(Cl)c2)C(=O)O)cc1` , report the class its IC50 corresponds to.
Result block: group 2

Query block: For the record `CCCCOc1ccc(C[C@H](NC(=O)[C@@H]2CCCN2S(=O)(=O)c2cc(Cl)cc(Cl)c2)C(=O)O)cc1` , report the class its IC50 corresponds to.
Result block: group 3

Query block: For the record `C[C@@]1(C(=O)N[C@@H](Cc2ccc(OC(=O)N3CCOCC3)cc2)C(=O)O)CCCN1S(=O)(=O)c1cc(Cl)cc(Cl)c1` , report the class its IC50 corresponds to.
Result block: group 1

Query block: For the record `O=C(O)[C@H](Cc1ccc(OC(=O)N2CCCC2)cc1)NC(=O)[C@@H]1CCCN1S(=O)(=O)c1cc(Cl)cc(Cl)c1` , report the class its IC50 corresponds to.
Result block: group 1

Query block: For the record `O=C(Oc1ccc(C[C@H](NC(=O)[C@@H]2CCCN2S(=O)(=O)c2cc(Cl)cc(Cl)c2)C(=O)O)cc1)c1ccc[nH]1` , report the class its IC50 corresponds to.
Result block: group 2

Query block: For the record `CC(C)(C)Oc1cccc(C[C@H](NC(=O)[C@]2(C)CCCN2S(=O)(=O)c2cc(Cl)cc(Cl)c2)C(=O)O)c1` , report the class its IC50 corresponds to.
Result block: group 3

Query block: For the record `O=C(Oc1ccc(C[C@H](NC(=O)[C@@H]2CCCN2S(=O)(=O)c2cc(Cl)cc(Cl)c2)C(=O)O)cc1)C1CCCC1` , report the class its IC50 corresponds to.
Result block: group 2

Query block: For the record CS(=O)(=O)N1CCC[C@H]1C(=O)N[C@@H](Cc1ccc(OC(=O)N2CCCC2)cc1)C(=O)O (Ms-Pro-Tyr([CO-Pyrrolidide])-OH) , report the class its IC50 corresponds to.
Result block: group 3

Query block: For the record `CC(C)(C)Oc1ccc(C[C@H](NC(=O)[C@]2(C)CCCN2S(=O)(=O)c2cc(Cl)cc(Cl)c2)C(=O)O)cc1` , report the class its IC50 corresponds to.
Result block: group 2

Query block: For the record `CC(C)N(C(=O)Oc1ccc(C[C@H](NC(=O)[C@]2(C)CCCN2S(=O)(=O)c2cc(Cl)cc(Cl)c2)C(=O)O)cc1)C(C)C` , report the class its IC50 corresponds to.
Result block: group 2

Query block: For the record `COCCOc1ccc(C[C@H](NC(=O)[C@@H]2CCCN2S(=O)(=O)c2cc(Cl)cc(Cl)c2)C(=O)O)cc1` , report the class its IC50 corresponds to.
Result block: group 2

Query block: For the record `CC(C)(C)OC(=O)COc1cccc(C[C@H](NC(=O)[C@]2(C)CCCN2S(=O)(=O)c2cc(Cl)cc(Cl)c2)C(=O)O)c1` , report the class its IC50 corresponds to.
Result block: group 3

Query block: For the record `O=C(O)[C@H](Cc1ccc(OCc2ccccc2)cc1)NC(=O)[C@@H]1CCCN1S(=O)(=O)c1cc(Cl)cc(Cl)c1` , report the class its IC50 corresponds to.
Result block: group 3

Query block: For the record `CC(=O)COc1ccc(C[C@H](NC(=O)[C@@H]2CCCN2S(=O)(=O)c2cc(Cl)cc(Cl)c2)C(=O)O)cc1` , report the class its IC50 corresponds to.
Result block: group 1

Query block: For the record `COc1ccc(C[C@H](NC(=O)[C@@H]2CCCN2S(=O)(=O)c2cc(Cl)cc(Cl)c2)C(=O)O)cc1` , report the class its IC50 corresponds to.
Result block: group 3

Query block: For the record `O=C(O)[C@H](Cc1ccc(OC(=O)N2CCCC2)cc1)NC(=O)[C@@H]1CCCN1S(=O)(=O)c1ccccc1` , report the class its IC50 corresponds to.
Result block: group 1

Query block: For the record `C[C@@]1(C(=O)N[C@@H](Cc2ccc(OC(=O)N3CCCC3)cc2)C(=O)O)CCCN1S(=O)(=O)c1cc(Cl)cc(Cl)c1` , report the class its IC50 corresponds to.
Result block: group 1

Query block: For the record `O=C(Oc1ccc(C[C@H](NC(=O)[C@@H]2CCCN2S(=O)(=O)c2cc(Cl)cc(Cl)c2)C(=O)O)cc1)c1ccccc1` , report the class its IC50 corresponds to.
Result block: group 3

Query block: For the record `CN(C(=O)Oc1ccc(C[C@H](NC(=O)[C@]2(C)CCCN2S(=O)(=O)c2cc(Cl)cc(Cl)c2)C(=O)O)cc1)c1ccccc1` , report the class its IC50 corresponds to.
Result block: group 2

Query block: For the record `CC(C)(C)OC(=O)COc1ccc(C[C@H](NC(=O)[C@@H]2CCCN2S(=O)(=O)c2cc(Cl)cc(Cl)c2)C(=O)O)cc1` , report the class its IC50 corresponds to.
Result block: group 1

Query block: For the record `O=C(O)[C@H](Cc1ccc(OCc2nnn[nH]2)cc1)NC(=O)[C@@H]1CCCN1S(=O)(=O)c1cc(Cl)cc(Cl)c1` , report the class its IC50 corresponds to.
Result block: group 2

Query block: For the record `C[C@@]1(C(=O)N[C@@H](Cc2cccc(OC(=O)N3CCCC3)c2)C(=O)O)CCCN1S(=O)(=O)c1cc(Cl)cc(Cl)c1` , report the class its IC50 corresponds to.
Result block: group 3

Query block: For the record `O=C(O)[C@H](Cc1ccc(O)cc1)NC(=O)[C@@H]1CCCN1S(=O)(=O)c1cc(Cl)cc(Cl)c1` , report the class its IC50 corresponds to.
Result block: group 3

Query block: For the record `CC(C)(C)Oc1ccc(C[C@H](NC(=O)[C@@H]2CCCN2S(=O)(=O)c2cc(Cl)cc(Cl)c2)C(=O)O)cc1` , report the class its IC50 corresponds to.
Result block: group 2

Query block: For the record `CCN(CC)C(=O)Oc1ccc(C[C@H](NC(=O)[C@]2(C)CCCN2S(=O)(=O)c2cc(Cl)cc(Cl)c2)C(=O)O)cc1` , report the class its IC50 corresponds to.
Result block: group 1
